# Tested on: TK-10 renal
# test.method.notes: NCI tumour cell line growth inhibition, 48 h
measure.name: TGI (µM)
Express it in µM; write the number only.

Short answer on TK-10 renal for "O=C1/C(=C(/c2ccccc2)N2CCOCC2)Cc2ccccc21" , TGI: 2.66

Short answer on TK-10 renal for "Cc1cc(C(=O)Nc2ccc3cc(CN4CCOCC4)ccc3n2)c(C)n1-c1ccccc1" , TGI: 58.5

---

# Test system: SF-268 CNS
# test.method.notes: NCI tumour cell line growth inhibition, 48 h
measure.name: TGI

Notebook: CCOC(C)O[C@H]1C(=O)OCC1(C)C (stereo not given in full) , TGI read as > 100 µM

Notebook: "C=C(C)[C@H]1Cc2c(ccc3c2O[C@@H]2COc4cc(OC)c(OC)cc4[C@@H]2C3=O)O1" , TGI read as 28.2 µM

Notebook: CCOC(=O)N[C@@H]1C(CC(=O)OC)O[C@H]2OC(C)(C)O[C@H]21 (stereo not given in full) , TGI read as > 100 µM

Notebook: "O=C(N/N=C/c1cc(Br)ccc1O)N/N=C/c1cc(Br)ccc1O" , TGI read as > 100 µM

Notebook: Cn1cc(C2(C)CC(C)(C)c3c2n(C)c2ccccc32)c2ccccc21 (stereo not given) , TGI read as > 100 µM

Notebook: CC(=O)O[C@H]1CCC2[C@@H]3CC[C@]4(C)CC(=O)C=C[C@]4(C)C3CC[C@@]21C (stereo not given in full) , TGI read as 43.8 µM

Notebook: c1ccc(C2N3CCCCC3[C@@H]3c4[nH]c5ccccc5c4CCN23)nc1 (stereo not given in full) , TGI read as > 100 µM

Notebook: "CSc1cc(Cl)c(C)cc1S(=O)(=O)NC(=O)NNc1cccc(C(F)(F)F)n1" , TGI read as > 100 µM

Notebook: "COc1ccc(-c2[nH]c3ccc(OC)cc3c2/C=C(\C#N)S(=O)(=O)c2ccccc2)cc1" , TGI read as > 100 µM

Notebook: "C/C(=N/NC(N)=S)c1ccc[nH]1" , TGI read as > 100 µM
